Test system: SK-MEL-2
Experiment: NCI tumour cell line growth inhibition, 48 h
Calls of active or inactive are those of the source. Rule as the data show it: active = GI50 up to about 1.1 µM and inactive = higher.

>  <compound>
NC(Cc1ccccc1)c1nccs1 (stereo not given)

>  <GI50>
> 100 µM (inactive)

$$$$
>  <compound>
COc1cc2c(c3oc4c(O)cccc4c(=O)c13)CC(C(C)(O)CO)O2 (stereo not given)

>  <GI50>
57.4 µM (inactive)

$$$$
>  <compound>
Clc1sc(Cl)c2c1[C@@H](Cl)C[C@@H]2Cl

>  <GI50>
> 100 µM (inactive)

$$$$
>  <compound>
O=C1C=CC(=O)C2=C1[C@@H](O)C1CC=CC3C(=O)O[C@@H]2C31 (stereo not given in full)

>  <GI50>
18.2 µM (inactive)

$$$$
>  <compound>
CCOC(=O)/C=C(/OCC)[C@@H]1C(C(=O)c2ccc(Cl)cc2)[C@@H]1/C(=C\C(=O)OCC)OCC (stereo not given in full)

>  <GI50>
56.4 µM (inactive)

$$$$
>  <compound>
C/C(CC(=O)Nc1ccc(Cl)cc1)=N\NC(N)=S

>  <GI50>
> 100 µM (inactive)

$$$$
>  <compound>
Cc1c(N2C(=O)C(Cl)C2c2ccc(Cl)cc2)c(=O)n(-c2ccccc2)n1C (stereo not given)

>  <GI50>
> 100 µM (inactive)

$$$$
>  <compound>
Cn1cc2ccccc2c1-c1nc(F)nc(Oc2ccc3c(c2)CC[C@@H]2C3CC[C@]3(C)C(O)CCC23)n1 (stereo not given in full)

>  <GI50>
16.5 µM (inactive)

$$$$
>  <compound>
COc1cc(OC)c2nc(C)c3c(c2c1)SCC3

>  <GI50>
27.7 µM (inactive)

$$$$
>  <compound>
Nc1nc(Cl)c(/N=N/c2ccc(Cl)cc2)c(NCC2(CO)CCC(CCc3ccccc3)C2)n1 (stereo not given)

>  <GI50>
13.6 µM (inactive)

$$$$

---

Test system: OVCAR-8
Experiment: NCI tumour cell line growth inhibition, 48 h
The source made the active and inactive calls. Cut-off read from the data, not from the text of the source: active = GI50 up to about 1.1 µM and inactive = higher.
Items are presented alongside their recorded GI50.

>  <molecule>
N=C(N)Nc1ccc(CC(N)C(=O)NCC(=O)C(CC(=O)O)c2ncc(NC(=O)C(F)(F)F)o2)cc1 (centres undefined)

>  <GI50>
> 25 µM (inactive)

$$$$
>  <molecule>
CCOc1ncn(-c2ccc(NC(=S)NC3OC(CO)C(O)C(O)C3O)cc2)n1 (centres undefined)

>  <GI50>
> 100 µM (inactive)

$$$$
>  <molecule>
NC1CCN(c2nc3ccccc3c3c2CCCC3)CC1

>  <GI50>
13.2 µM (inactive)

$$$$
>  <molecule>
Cc1ccc(C(=O)Nc2ccc(CP(=O)(O)O)cc2CP(=O)(O)O)cc1N

>  <GI50>
> 100 µM (inactive)

$$$$
>  <molecule>
[O-][N+]1=C(c2ccccc2)COc2ccccc21

>  <GI50>
> 100 µM (inactive)

$$$$
>  <molecule>
CC(=O)CC1=C(OC(C)C)C2(OCCO2)C1O (centres undefined)

>  <GI50>
> 100 µM (inactive)

$$$$
>  <molecule>
Cc1c(N2C(=O)C(Cl)C2c2ccc(Cl)cc2)c(=O)n(-c2ccccc2)n1C (centres undefined)

>  <GI50>
> 100 µM (inactive)

$$$$
>  <molecule>
Cc1ccc(-n2cc(-c3ccc(Cl)cc3)c3c2N=CN2N=C(c4cccs4)NC32)cc1 (centres undefined)

>  <GI50>
6.46 µM (inactive)

$$$$
>  <molecule>
N#C/C(=C\c1c(Cl)cccc1Cl)c1ccccc1

>  <GI50>
16.4 µM (inactive)

$$$$
>  <molecule>
COc1cccc(C2C(C(=O)O)=C(CO)Oc3cc4c(cc32)OCO4)c1 (centres undefined)

>  <GI50>
> 100 µM (inactive)

$$$$
>  <molecule>
CN(C)c1ccc(C2CC(C)(O)Oc3cc4c(cc32)OCO4)cc1 (centres undefined)

>  <GI50>
29.5 µM (inactive)

$$$$
>  <molecule>
COC[C@@H](Cc1ccc(OC)c(OC)c1)[C@@H](COC)Cc1ccc(OC)c(OC)c1

>  <GI50>
> 100 µM (inactive)

$$$$
>  <molecule>
C=COCCCOc1ccccc1

>  <GI50>
> 100 µM (inactive)

$$$$
>  <molecule>
O=C1CCCC2=C1C(c1ccc3c(c1)OCO3)Nc1ccc3ccccc3c12 (centres undefined)

>  <GI50>
87.5 µM (inactive)

$$$$
>  <molecule>
CCOC(=O)/C(=C/c1cn(C(C)=O)c2ccccc12)P(=O)(OC)OC

>  <GI50>
46.7 µM (inactive)

$$$$
>  <molecule>
CCCCN1CSC(=S)N(Cc2ccccc2)C1

>  <GI50>
66.4 µM (inactive)

$$$$
>  <molecule>
CC(=O)Oc1ccc2c(=O)c(C(C)=O)coc2c1

>  <GI50>
> 100 µM (inactive)

$$$$
>  <molecule>
CC(C)(C)C(=O)OCOP(=O)(OCOC(=O)C(C)(C)C)OCC1OC(n2ccc(=O)[nH]c2=O)C(N=[N+]=[N-])C1O (centres undefined)

>  <GI50>
3.06 µM (inactive)

$$$$
>  <molecule>
O=C(O)c1cnc2[nH]ccn2c1=O

>  <GI50>
> 100 µM (inactive)

$$$$
>  <molecule>
O=C(OCCOCBr)c1ccccc1

>  <GI50>
> 100 µM (inactive)

$$$$
>  <molecule>
C=CS(=O)(=O)CCN1CC1

>  <GI50>
> 10 µM (inactive)

$$$$
>  <molecule>
O=C1OC([C@H](O)c2cccnc2)c2ccccc21 (some centres undefined)

>  <GI50>
> 10 µM (inactive)

$$$$
>  <molecule>
COc1cc2c(cc1OCc1ccccc1)NC(=S)[C@@H]1CCCN1C2=S

>  <GI50>
12.3 µM (inactive)

$$$$
>  <molecule>
CC(=O)O[C@]1(C)CCC2C(C)C(=O)OC2C2C(C)[C@@H](O)CC21 (some centres undefined)

>  <GI50>
87.9 µM (inactive)

$$$$
>  <molecule>
NC(=O)NNCc1ccccc1

>  <GI50>
> 100 µM (inactive)

$$$$
>  <molecule>
NNC(=O)c1nn[nH]c1SSc1[nH]nnc1C(=O)NN

>  <GI50>
> 100 µM (inactive)

$$$$
>  <molecule>
NC1=NCN(C2OC(CO)C(O)C2O)C(=O)N1 (centres undefined)

>  <GI50>
415 µM (inactive)

$$$$
>  <molecule>
NC1CCCCC1.O=P(O)(O)C(O)/C=C/c1ccccc1 (centres undefined)

>  <GI50>
> 100 µM (inactive)

$$$$
>  <molecule>
CC[C@@]1(O)C(=O)OCc2c1cc1n(c2=O)Cc2cc3cc4c(cc3nc2-1)OCO4

>  <GI50>
0.00189 µM (active)

$$$$
>  <molecule>
CCN1C(=O)c2cc(OC)c(OC)cc2C(=O)C12OC(=O)c1cc3c(cc12)OCO3 (centres undefined)

>  <GI50>
48 µM (inactive)

$$$$
>  <molecule>
COc1cc(OC)c2nc(C)c3c(c2c1)SCC3

>  <GI50>
19 µM (inactive)

$$$$
>  <molecule>
O=C1NC(N2CCCC(CO)C2)=N/C1=C\c1ccc(Cl)cc1 (centres undefined)

>  <GI50>
> 100 µM (inactive)

$$$$
>  <molecule>
Cn1c(-c2ccc(-c3cc(-c4cccs4)c(-c4cccs4)n3C)cc2)cc(-c2cccs2)c1-c1cccs1

>  <GI50>
> 100 µM (inactive)

$$$$
>  <molecule>
CCOP(=O)(OCC)C1CC(n2cc(C)c(=O)[nH]c2=O)OC1CO (centres undefined)

>  <GI50>
> 100 µM (inactive)

$$$$
>  <molecule>
Cc1ccc(S(=O)(=O)n2cncc2CO)cc1

>  <GI50>
> 100 µM (inactive)

$$$$
>  <molecule>
NCCCCNc1ccc2c(=O)[nH][nH]c(=O)c2c1

>  <GI50>
> 100 µM (inactive)

$$$$
>  <molecule>
CCC(O)C1Cc2c(C)cc3c(c2O1)C(=O)c1ccccc1C3=O (centres undefined)

>  <GI50>
32.4 µM (inactive)

$$$$
>  <molecule>
NC1C2C(CC(=O)O)OCC=C3CN4CCC1(C(=O)C(=O)O)C4CC32 (centres undefined)

>  <GI50>
> 100 µM (inactive)

$$$$
>  <molecule>
CC(=O)NC1C(OCc2ccccc2)OC(CO)C(O)C1OCC(=O)N[C@@H](C)C(=O)N[C@H](CCC(=O)NCCCNc1ccc([N+](=O)[O-])c2[nH]c3ccccc3c(=O)c12)C(N)=O (some centres undefined)

>  <GI50>
92.9 µM (inactive)

$$$$
>  <molecule>
O=C1NC(c2ccc3ccccc3c2)Nc2ccccc21 (centres undefined)

>  <GI50>
33.4 µM (inactive)

$$$$
>  <molecule>
Cc1cc2ncn(C3CCCCO3)c2cc1C (centres undefined)

>  <GI50>
> 100 µM (inactive)

$$$$
>  <molecule>
CCCCC(C(=O)NCCNC(=O)CCC(=O)N(C)O)C(=O)NCCNC(=O)CCC(=O)N(C)O

>  <GI50>
> 100 µM (inactive)

$$$$
>  <molecule>
COC1(C)/C=N/CC(C)(C)NC(=O)C(C)(OC)/C=N/CC(C)(C)NC1=O (centres undefined)

>  <GI50>
> 10 µM (inactive)

$$$$
>  <molecule>
COc1ccc(C2C(C(=O)O)=C(COC(C)=O)Oc3cc4c(cc32)OCO4)c(OC)c1 (centres undefined)

>  <GI50>
> 100 µM (inactive)

$$$$

# credit: ChEMBL document CHEMBL1201862
